This collection of values is drawn from PubChem BioAssay (NCI).

Catalogue of growth inhibition values
# testDescription: NCI Yeast Anticancer Drug Screen. Data for the bub3 strain (AID 167)
# protocolConditions: S. cerevisiae bub3 mutant strain, at 50.0 µM, active compounds read high
# Method: Growth inhibition of yeast strains with defined genetic alterations is measured as a screen for potential anti-cancer activity. Selected strains with alterations in DNA damage repair or cell cycle control were exposed to compounds and growth inhibition was measured relative to vehicle treated controls. The strain used in this assay is bub3
About 79,000 compounds went through this panel and 15% of them were active in at least one assay; those are over-represented in the sample as a whole.
# unit: % | format: bare number

compound	unitsText	growth inhibition
C=C(CCCCCCCCC)CC(=O)SCCNC(=O)CCNC(=O)C(O)C(C)(C)COP(=O)(O)OP(=O)(O)OCC1OC(n2cnc3c(N)ncnc32)C(O)C1OP(=O)(O)O (stereo unspecified)	%	-19.6
COc1cc2c(cc1OC)C1c3cc(OC)c(OC)cc3CC(=O)N1CC2 (stereo unspecified)	%	24.5
Cc1cc2c(C#N)c3ccccc3c(=O)n2c2ccccc12	%	-13.7

Request: Write down growth inhibition measured for item CC(C)N(CC(=O)O)CC(=O)O
Response: -22.9

Request: Write down growth inhibition measured for item CCCCCCCCCCCCCCCC(=O)CCCCCCCCCCCCCCC
Response: -0.95

Request: Write down growth inhibition measured for item CCCCCCCCCCCCCCCCN1C(=O)C2C(C1=O)C1(Cl)C(Cl)=C(Cl)C2(Cl)C1(Cl)Cl (stereo unspecified)
Response: -4.6

Request: Write down growth inhibition measured for item CSc1nc2c(nnn2C2OCC(O)C(O)C2O)c(=O)[nH]1 (stereo unspecified)
Response: -6.1

Request: Write down growth inhibition measured for item CCOC(CCCl)c1ccccc1 (stereo unspecified)
Response: 11.1

Request: Write down growth inhibition measured for item O=[N+]([O-])c1cccc(OCC2CO2)c1 (stereo unspecified)
Response: -2.1

Request: Write down growth inhibition measured for item ClC(Cl)=C(c1ccccc1)c1ccccc1
Response: -4.45

Request: Write down growth inhibition measured for item CNC(=O)OCc1c(COC(=O)NC)c(-c2ccc(SC)cc2)n(C)c1C
Response: 2.6

====

Catalogue of growth inhibition values
# testDescription: NCI Yeast Anticancer Drug Screen. Data for the bub3 strain (AID 167)
# protocolConditions: S. cerevisiae bub3 mutant strain, at 50.0 µM, active compounds read high
This is part of a sample that, as a whole, favours compounds with a hit. Of some 79,000 tested, about 15% had one in any assay.
# unit: % | format: bare number

Below, 3 compounds whose answers are already recorded.
> print(dat)
                                   compound  reportedvalue
1  C/C(=N\NC(=S)N1CCC(C2CCN(C(=S)N/N=C(\C)c3ccccn3)CC2)CC1)c1ccccn1           63.9
2              CC(=O)c1ccc(Cl)c(-n2cccc2)c1           17.8
3          Cc1cc2cc(Cl)ccc2nc1C(=O)c1ccccc1          -6.65

Request: Write down growth inhibition measured for item CC1(C)C(=O)CCC2(C)C(OC(=O)c3ccc(C(=O)O)cc3)CCCC12 (stereo not given)
Response: 20.2

Request: Write down growth inhibition measured for item CC(C)(C)OC(=O)N1CCc2c(n(C/C=C/c3ccccc3)[nH]c2=O)C1
Response: 1.55

Request: Write down growth inhibition measured for item [N-]=[N+]=Nc1ccc(S(=O)(=O)Oc2cc(OS(=O)(=O)c3ccc(N=[N+]=[N-])cc3)cc(OS(=O)(=O)c3ccc(N=[N+]=[N-])cc3)c2)cc1
Response: -5.9

Request: Write down growth inhibition measured for item [Cl][Sm]([Cl])[Cl]
Response: 27.6
